Molecular target: human muscarinic M3 receptor (Homo sapiens (Human), UniProt P20309)
Sequence (P20309 whole entry): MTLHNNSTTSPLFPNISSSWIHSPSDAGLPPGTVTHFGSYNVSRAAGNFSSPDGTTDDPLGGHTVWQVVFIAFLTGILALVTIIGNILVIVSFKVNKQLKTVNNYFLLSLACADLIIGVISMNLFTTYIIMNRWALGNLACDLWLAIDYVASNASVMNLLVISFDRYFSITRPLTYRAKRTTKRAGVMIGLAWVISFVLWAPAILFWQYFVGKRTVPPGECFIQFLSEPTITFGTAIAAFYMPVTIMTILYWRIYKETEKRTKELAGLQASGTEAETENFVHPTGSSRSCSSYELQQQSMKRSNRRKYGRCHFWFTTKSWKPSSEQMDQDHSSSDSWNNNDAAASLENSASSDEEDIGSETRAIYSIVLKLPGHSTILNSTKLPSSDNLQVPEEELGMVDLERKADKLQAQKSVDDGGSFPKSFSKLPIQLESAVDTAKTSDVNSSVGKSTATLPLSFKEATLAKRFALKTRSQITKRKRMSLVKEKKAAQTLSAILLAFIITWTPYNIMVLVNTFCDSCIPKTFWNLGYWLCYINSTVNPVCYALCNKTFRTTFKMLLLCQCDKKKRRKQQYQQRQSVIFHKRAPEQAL
Assay: Human muscarinic M3 receptor binding assay ([3H]-NMS, CHO-K1 cell membranes)
Conditions: 1 nM [3H]-NMS, membranes from CHO-K1 cells
ATTRIBUTE MEASURED: IC50 (nM)

>>> reported_result("CN(CCCn1c(=O)[nH]c2cc(CNC[C@H](O)c3ccc(O)c4[nH]c(=O)ccc34)ccc21)[C@H]1CC[C@H](OC(=O)C(O)(c2cccs2)c2cccs2)CC1 (relative stereo)")
0.4

---

Molecular target: human adrenergic beta2 receptor (Homo sapiens (Human))
Sequence (P07550 whole entry): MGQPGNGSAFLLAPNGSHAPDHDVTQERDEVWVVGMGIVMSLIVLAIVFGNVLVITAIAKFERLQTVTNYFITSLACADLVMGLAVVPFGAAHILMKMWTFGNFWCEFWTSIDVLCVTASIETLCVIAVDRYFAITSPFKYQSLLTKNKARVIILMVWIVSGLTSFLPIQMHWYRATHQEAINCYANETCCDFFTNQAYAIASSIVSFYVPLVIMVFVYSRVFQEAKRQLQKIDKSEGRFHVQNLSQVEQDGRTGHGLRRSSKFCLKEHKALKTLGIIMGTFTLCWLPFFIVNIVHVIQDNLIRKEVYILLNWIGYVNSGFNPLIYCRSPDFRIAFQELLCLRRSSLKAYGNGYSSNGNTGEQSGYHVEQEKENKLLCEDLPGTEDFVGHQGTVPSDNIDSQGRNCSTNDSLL
Test: Human adrenergic β2 receptor binding assay (3H-CGP12177, Sf9 cell membranes)
Conditions: 0.6 nM 3H-CGP12177, membranes from Sf9 cells
ATTRIBUTE MEASURED: IC50 (nM)

>>> reported_result("CN(CCCn1c(=O)[nH]c2cc(CNC[C@H](O)c3ccc(O)c4[nH]c(=O)ccc34)ccc21)[C@H]1CC[C@H](OC(=O)C(O)(c2cccs2)c2cccs2)CC1 (relative stereo)")
120
